Tested on: Hela Cells
Experiment: Cellular ER stress model (tunicamycin, WST-8 cell viability)
Conditions: Homo sapiens, HeLa, 48 h, read-out: % Cell Survival Cmpd(2.5 μM) + Tuni, Hela cells, compound 2.5 μM + tunicamycin, WST-8 viability 48 hours after tunicamycin treatment
Counter-ions that a name gives are not always drawn.
Measure: viability at 2.5 µM (%)
Expressed in %, but write only the number.

Fc1cccc(F)c1/C=N/NC1=NCCN1 [JM2-103-2, hydrochloride] : 48.7

Exercise: What reported viability at 2.5 µM corresponds to CN(C)C(=N)N/N=C/c1c(Cl)cccc1Cl [JM2-289-2, hydroiodide] on Hela Cells?
Solution: 33.8

Exercise: What reported viability at 2.5 µM corresponds to N=C(N)N/N=C/c1c(F)cccc1F [JM1-191-2, acetate] on Hela Cells?
Solution: 45.7

---

Test system: Hela Cells
Assay: Cellular ER stress model (tunicamycin, WST-8 cell viability)
Details: Homo sapiens, HeLa, 48 h, read-out: % Cell Survival Cmpd(2.5 μM) + Tuni, Hela cells, compound 2.5 μM + tunicamycin, WST-8 viability 48 hours after tunicamycin treatment
Structures can show the parent of a compound that is named as a salt.
Measure: viability at 2.5 µM (%)
Expressed in %, but write only the number.

# annotated cases, reported viability at 2.5 µM shown
N=C(N)N/N=C\c1c(Cl)cccc1Cl [BC1-55-1, acetate] : 22.1
N=C1NCCCN1/N=C/c1c(Cl)cccc1Cl [JM3-255-2, hydrobromide] : 24.5

Exercise: What does the record list as viability at 2.5 µM for N=C(N/N=C/c1c(Cl)cccc1Cl)Nc1ccccc1 [JM2-175-2, hydroiodide] ?
Solution: 34.3

Exercise: What does the record list as viability at 2.5 µM for Clc1ccc(Cl)c(/C=N/NC2=NCCN2)c1Cl [JM3-151-2, hydrochloride] ?
Solution: 24.2

Exercise: What does the record list as viability at 2.5 µM for Clc1cccc(/C=N/NC2=NCCN2)c1Cl [JM3-149-2, hydrochloride] ?
Solution: 29.1

Exercise: What does the record list as viability at 2.5 µM for N=C(N)N/N=C/c1cc(F)ccc1Cl [JM1-185-2, acetate] ?
Solution: 54.4

Exercise: What does the record list as viability at 2.5 µM for N=C(N)N/N=C/c1cc(Cl)ccc1Cl [JM3-11-2, acetate] ?
Solution: 40.2

Exercise: What does the record list as viability at 2.5 µM for `CCc1cccc(CC)c1/C=N/NC(=N)N` ?
Solution: 31.8

Exercise: What does the record list as viability at 2.5 µM for Clc1ccc(Cl)c(/C=N/NC2=NCCCN2)c1Cl [JM3-155-2, hydrochloride] ?
Solution: 31.2

---

Test system: Hela Cells
Assay: Cellular ER stress model (tunicamycin, WST-8 cell viability)
Settings: Homo sapiens, HeLa, 48 h, read-out: % Cell Survival Cmpd(2.5 μM) + Tuni, Hela cells, compound 2.5 μM + tunicamycin, WST-8 viability 48 hours after tunicamycin treatment
Counter-ions that a name gives are not always drawn.
Param label: returns 1.0 when viability at 2.5 µM < 30%, returns 0.0 otherwise, including exact equality.

CC(C)c1cccc(Cl)c1/C=N/NC(=N)N [JM3-89-2, acetate] : 1.0
N=C(N)N/N=C/c1c(Br)cccc1[N+](=O)[O-] [JM1-175-2, acetate] : 0.0
N=C(N)N/N=C/c1c(F)cccc1C(F)(F)F [JM1-223-2, acetate] : 0.0

Consider the additional compound presented here.
Exercise: # strict comparison: is reported viability at 2.5 µM < 30%? input = NC(=O)N/N=C/c1ccccc1Cl [JM3-223-2, hydrochloride]
Solution: 1.0
